- Tested on: Jurkat
- Assay overview: cytotoxicity relative to DMSO, 18 h (ratio); higher = less cell death (drugs called cytotoxic fall below 1)
- Condition summary: 1 nM
Recorded metric: cytotoxicity
One number for each entry.

Known cytotoxicity results, listed for orientation:
• Nc1cc(F)ccc1NC(=O)c1ccc(CNC(=O)C=Cc2cccnc2)cc1 [Tucidinostat] = 1.08
• COc1cc(Nc2ncc(F)c(Nc3ccc4c(n3)N(COP(=O)(O)O)C(=O)C(C)(C)O4)n2)cc(OC)c1OC [Fostamatinib] = 1.06
• Cc1nc(NC(=O)N2CCCC2C(N)=O)sc1-c1ccnc(C(C)(C)C(F)(F)F)c1 (centres undefined) [Alpelisib] = 0.929

We next turn to a different compound, shown below.
Task: Answer with the recorded cytotoxicity for the compound listed here: Cc1cc(C)cc(C(=O)NOCCCCCC(=O)NO)c1 [LMK235]
Output: 0.947

====

Give cytotoxicity for every item shown.
- Tested on: Jurkat
- Assay overview: cytotoxicity relative to DMSO, 18 h (ratio); higher = less cell death (drugs called cytotoxic fall below 1)
- Condition summary: 1 nM
Give bare numbers.

• CCCCc1nc2cc(C=CC(=O)NO)ccc2n1CCN(CC)CC = 0.918

Look at each compound and report its cytotoxicity.
1. CCNC(=O)Nc1ccc(-c2nc3c(c(N4CCOCC4C)n2)CCN(C2COC2)C3)cc1 (stereo not drawn)
2. O=C1NC(=O)C(=Cc2ccc3nccc(-c4ccncc4)c3c2)S1
3. Cc1c(CN2CCN(C(=O)C(C)O)CC2)sc2c(N3CCOCC3)nc(-c3cnc(N)nc3)nc12 (stereo not drawn)

Output:
1: 0.991; 2: 0.944; 3: 0.79

====

- System: Jurkat
- Assay overview: cytotoxicity relative to DMSO, 18 h (ratio); higher = less cell death (drugs called cytotoxic fall below 1)
- Condition summary: 1 nM
Recorded metric: cytotoxicity

Before answering, review these 2 worked examples.
• CCC(Nc1ncnc2nc[nH]c12)c1nc2cccc(F)c2c(=O)n1-c1ccccc1 (centres undefined) [Idelalisib] = 1.05
• C=CCNC1=C2CC(C)CC(OC)C(O)C(C)C=C(C)C(OC(N)=O)C(OC)C=CC=C(C)C(=O)NC(=CC1=O)C2=O (centres undefined) [Tanespimycin] = 0.913

Items follow; give cytotoxicity for each.
1. COc1ccc(Cl)c(Nc2nc3ccccc3nc2NS(=O)(=O)c2cccc(NC(=O)C(C)(C)N)c2)c1 [Pilaralisib]
2. COC1=C2CC(C)CC(OC)C(O)C(C)C=C(C)C(OC(N)=O)C(OC)C=CC=C(C)C(=O)NC(=CC1=O)C2=O (centres undefined) [Geldanamycin]

Output:
1.06
0.946

====

- Tested on: Jurkat
- Assay overview: cytotoxicity relative to DMSO, 18 h (ratio); higher = less cell death (drugs called cytotoxic fall below 1)
- Condition summary: 1 nM
Classification field: y = cytotoxicity at or over 1; n = cytotoxicity under 1.

Consider the worked cases shown below.
* CC(Oc1cc(-c2cnn(C3CCNCC3)c2)cnc1N)c1c(Cl)ccc(F)c1Cl (configuration not stated) | n
* COC(=O)c1ccc2c(C(=Nc3ccc(N(C)C(=O)CN4CCN(C)CC4)cc3)c3ccccc3)c(O)[nH]c2c1 | n
* Nc1cccc2c1CN(C1CCC(=O)NC1=O)C2=O (configuration not stated) [Lenalidomide] | n
* Cc1nc(-c2cccnc2)sc1C(=O)Nc1ccccc1-c1cn2c(CN3CCOCC3)csc2n1 | y

Task: Is reported cytotoxicity greater than or equal to 1 here: CN(C)C(=O)c1cc2cnc(Nc3ccc(N4CCNCC4)cn3)nc2n1C1CCCC1
Output: n

Task: // inclusive: cytotoxicity at least 1? input: CC(C)C(C(=O)Nc1ccc(C(=O)NO)cc1)c1ccccc1 (configuration not stated)
Output: n

Task: State whether the measured cytotoxicity reaches 1, counting equality as reaching it, for O=c1cc(-c2ccccc2F)[nH]c2cc3c(cc12)OCO3
Output: n

Task: Item O=C(CCCCCCNC(=O)c1cnc(N(c2ccccc2)c2ccccc2Cl)nc1)NO with cytotoxicity of 1 or above?
Output: y

Task: Does cytotoxicity meet or surpass 1 for Cc1sc2c(c1C)C(c1ccc(Cl)cc1)=NC(CC(=O)OC(C)(C)C)c1nnc(C)n1-2 (single isomer, unassigned; (+)) [(+)-JQ-1] ?
Output: y

Task: Does cytotoxicity meet or surpass 1 for CN1CCc2c(c3ccccc3n2Cc2ccc(C(=O)NO)cc2)C1 ?
Output: y

Task: Kindly determine if cytotoxicity recorded for c1ccc2c(CCNc3ccc(Nc4ccncc4)cc3)c[nH]c2c1 is above or exactly 1.
Output: y

Task: Hello, I need to know if COc1cc(OC)c2c(=O)[nH]c(-c3cc(C)c(OCCO)c(C)c3)nc2c1 has measured cytotoxicity not below 1. Thanks!
Output: y

Task: Entry COC(=O)Nc1nc2ccc(C(=O)c3cccs3)cc2[nH]1 : is its cytotoxicity no less than 1?
Output: y
